molecular target: T1, human LTBR on cells (human, UniProt P36941 31-435); test: FACS CHO-huLTBR, 0.08 µg/ml
T1 construct: also called recombinant human LTBR CHO cells; CHO-K1 cells overexpressing human LTBR
observable: MFI (MFI)
Answer with a number only, understood to be in MFI.

Recorded results for 3 binders are shown here.
P1AE9457 (antibody, human IgG1, kappa, L234A L235A, V domains shown, human IgG1 PG LALA; from transgenic rabbit immunization; also called LTBR (9457)) VH: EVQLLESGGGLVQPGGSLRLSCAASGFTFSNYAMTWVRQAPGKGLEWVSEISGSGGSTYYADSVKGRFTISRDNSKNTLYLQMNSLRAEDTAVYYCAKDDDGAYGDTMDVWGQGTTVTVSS VL: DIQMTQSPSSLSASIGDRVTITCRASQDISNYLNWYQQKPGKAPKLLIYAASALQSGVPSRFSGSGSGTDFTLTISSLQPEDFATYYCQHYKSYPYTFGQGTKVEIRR: 18200
P1AF0080 (antibody, human IgG1, kappa, L234A L235A, V domains shown, human IgG1 PG LALA; from transgenic rabbit immunization; also called LTBR (0080)) VH: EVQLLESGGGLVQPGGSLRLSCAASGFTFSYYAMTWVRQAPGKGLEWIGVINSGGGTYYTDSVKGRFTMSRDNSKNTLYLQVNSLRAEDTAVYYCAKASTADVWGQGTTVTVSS VL: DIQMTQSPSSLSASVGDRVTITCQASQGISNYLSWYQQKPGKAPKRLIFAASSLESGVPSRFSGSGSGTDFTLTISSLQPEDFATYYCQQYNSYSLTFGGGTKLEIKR: 17200
P1AE1873 (CBE11) (antibody, human IgG1, kappa, L234A L235A, V domains shown) VH: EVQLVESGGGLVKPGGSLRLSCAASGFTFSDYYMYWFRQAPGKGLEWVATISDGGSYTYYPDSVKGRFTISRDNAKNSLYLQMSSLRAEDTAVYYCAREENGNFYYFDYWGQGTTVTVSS VL: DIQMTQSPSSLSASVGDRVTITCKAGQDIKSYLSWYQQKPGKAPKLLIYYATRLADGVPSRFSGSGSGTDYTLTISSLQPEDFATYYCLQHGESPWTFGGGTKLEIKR: 6520

Now for another entry.
The measured MFI associated with P1AF0079 (antibody, human IgG1, kappa, L234A L235A, V domains shown, human IgG1 PG LALA; from transgenic rabbit immunization; also called LTBR (0079)) VH: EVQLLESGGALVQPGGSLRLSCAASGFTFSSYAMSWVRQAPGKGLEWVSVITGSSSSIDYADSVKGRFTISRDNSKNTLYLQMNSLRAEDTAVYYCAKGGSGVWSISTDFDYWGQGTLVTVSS VL: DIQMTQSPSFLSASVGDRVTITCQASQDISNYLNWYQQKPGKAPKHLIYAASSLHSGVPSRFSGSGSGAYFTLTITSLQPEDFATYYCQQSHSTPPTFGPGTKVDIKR reads 9040
